Attribution: PubChem BioAssay AID1159580

test: chemical genetic growth profiling, strain panel (AID 1159580);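 note: tested at 20 µM; growth read once vehicle control cultures reached saturation at 30 °C; 1 = growth at the plate median or of vehicle wells; lower values mean less growth of the strain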; conditions: S. cerevisiae deletion strains, growth OD, locus YDL185W, strain tfp1, active compounds read low
Hit rate of the full screen: of about 5,500 compounds, about 2,000 (36%) were called active. Inconclusive results (about 18%) are left out. Some of the results follow.
measured.parameter: normalized growth
Answer with a bare number; do not write a unit.

# compound, normalized growth
records = [
    ("CC(=O)O[C@@H]1CC2C(C)(C)[C@H](O)C=C[C@]2(C)C2CC[C@]3(C)C(=CC(=O)O[C@H]3c3ccoc3)[C@@]21C (some centres undefined)", 1.01),
    ("NCC(N)C(=O)c1ccccc1 (centres undefined)", 1),
    ("O=C(OCc1ccccc1)c1ccccc1", 0.986),
    ("CC(=O)OC1CCC2(C)C(CC(OC(C)=O)C3(C)C4=CC(=O)OC(c5ccoc5)C4(C)CCC23)C1(C)C (centres undefined)", 0.963),
    ("CC(C)(C)NCC(O)c1ccc(O)c(CO)c1 (centres undefined)", 1.02),
    ("CC(=O)O[C@H]1CC[C@@]2(C)C(C[C@@H](OC(C)=O)[C@@]3(C)C4=CC(=O)O[C@@H](c5ccoc5)[C@]4(C)CCC23)C1(C)C (some centres undefined)", 1),
]

Prompt: Suppose we examine the compound CC(=O)O[C@@H]1C=C[C@@]2(C)C(C[C@@H](OC(C)=O)[C@@]3(C)C4=CC(=O)O[C@@H](c5ccoc5)[C@]4(C)CCC23)C1(C)C (some centres undefined) ; what normalized growth value has been reported?
Completion: 0.0668

Prompt: Dear colleague, I am looking for the recorded normalized growth of the following compound: "COc1cc(C/C=C/c2ccccc2)c(OC)cc1O"
Completion: 0.932

Prompt: Quick one: normalized growth of "NCC(=O)c1ccccc1" ?
Completion: 0.996

Prompt: Param item = "CS(=O)(=O)c1ccc([C@@H](O)[C@@H](CO)NC(=O)C(Cl)Cl)cc1" ; retrieve measured normalized growth.
Completion: 0.941

Prompt: Please report the recorded normalized growth for "Oc1cccc(O)c1" .
Completion: 0.974

Prompt: Which measured normalized growth value corresponds to CC12CCC(=O)C=C1CCC1C2[C@@H](O)CC2(C)C1CC[C@]2(O)C(=O)COP(=O)(O)O (some centres undefined) ?
Completion: 1

Prompt: // query normalized growth value for entry "CCOC(=O)[C@H](CCc1ccccc1)N[C@@H](C)C(=O)N1CCC[C@H]1C(=O)O"
Completion: 1.01

Prompt: Fill in: normalized growth of CC(=O)O[C@@H]1CC2C(C)(C)C(=O)C=C[C@]2(C)C2CC[C@]3(C)C(=CC(=O)O[C@H]3c3ccoc3)[C@@]21C (some centres undefined) is ___
Completion: 0.959

Prompt: Tell me the measured normalized growth of CC(C)=CCCC(C)[C@@H]1CC[C@]2(C)C3=C(CC[C@@]12C)C1(C)CC[C@H](O)C(C)(C)C1CC3 (some centres undefined) , please.
Completion: 1.01

Prompt: Please give the measured normalized growth for this compound: CC(CCc1ccccc1)NCC(O)c1ccc(O)c(C(N)=O)c1 (centres undefined)
Completion: 1.01
